Entries and their Δkd (fold) values follow.
# SUBJECT_OF_TEST: T1, Recombinant human EGFR-Fc (aa 1-645 of the extracellular domain of human EGFR fused to human Fc) (human, UniProt P00533 25-645)
# T1 construct: range 1-645; bought from R&D Systems; also called EGFR645-Fc; EGFR-Fc (HER-1); not shown: human Fc
# ASSAY_DETAILS: SPR Biacore, EGFR645-Fc; against I1-GS10-E5 Pegylated

[
  {
    "BINDER": "I1(S62C)-GS10-E5 pegylated (designed binder, PEG on Cys at position 62 of I1 (position of SEQ ID NO: 1), also called I1(S62C)-GS10-E5(5)) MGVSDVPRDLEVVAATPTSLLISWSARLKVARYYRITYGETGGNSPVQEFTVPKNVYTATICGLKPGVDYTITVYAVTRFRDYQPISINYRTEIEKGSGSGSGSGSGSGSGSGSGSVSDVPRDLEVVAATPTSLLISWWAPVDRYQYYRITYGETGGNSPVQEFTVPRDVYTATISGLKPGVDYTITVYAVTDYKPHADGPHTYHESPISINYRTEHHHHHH",
    "Δkd (fold)": 0.4
  },
  {
    "BINDER": "I1-GS10-E5-GSGC pegylated (designed binder, PEG on the Cys of the GSGC tail of E5, alternative clone of I1-GS10-E5 pegylated; also called I1-GS10-E5-GSGC(4)) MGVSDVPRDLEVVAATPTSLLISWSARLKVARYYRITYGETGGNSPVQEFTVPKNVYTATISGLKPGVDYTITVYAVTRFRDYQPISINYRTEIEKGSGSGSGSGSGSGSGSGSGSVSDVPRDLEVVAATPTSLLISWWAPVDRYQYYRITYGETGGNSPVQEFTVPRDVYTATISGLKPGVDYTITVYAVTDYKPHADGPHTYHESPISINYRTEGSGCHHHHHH",
    "Δkd (fold)": 1.6
  },
  {
    "BINDER": "I1-GSGCGS8-E5 pegylated (designed binder, PEG on the Cys of the GSGCGS8 linker, alternative clone of I1-GS10-E5 pegylated; tail of first monomer EIEK (D to E); also called I1-GSGCGS8-E5(3)) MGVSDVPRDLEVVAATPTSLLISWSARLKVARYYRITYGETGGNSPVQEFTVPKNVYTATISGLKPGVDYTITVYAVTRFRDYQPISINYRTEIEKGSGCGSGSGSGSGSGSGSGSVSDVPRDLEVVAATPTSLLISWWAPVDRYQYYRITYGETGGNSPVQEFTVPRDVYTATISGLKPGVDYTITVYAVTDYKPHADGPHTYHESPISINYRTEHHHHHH",
    "Δkd (fold)": 0.6
  }
]
